The measurements presented in this section are drawn from patent US11613547B2.

Each entry below lists one item and its recorded pKi value.
# Target desc: mKOR (Mus musculus)
Schema: pKi number; meaning minus log10 of the concentration expressed in molar units.

Molecule	Target desc	pKi
N=C(N)NCc1cccc(C(=O)N[C@@H]2CCC3C4Cc5ccc(O)c6c5[C@@]3(CCN4CC3CC3)C2O6)c1 (some centres unmarked)	mKOR (Mus musculus)	9.55

Prompt: Reported pKi for mKOR (Mus musculus), given O=C(N[C@@H]1CC[C@@]2(O)[C@H]3Cc4ccc(O)c5c4[C@@]2(CCN3CC2CC2)[C@H]1O5)c1cccc(I)c1 [IBNtxA, reference compound] ?
Response: 10.52

Prompt: # query: pKi | item CO[C@@]12CC[C@@H](NC(=O)c3cccc(I)c3)C3Oc4c(O)ccc5c4[C@@]31CCN(CC1CC1)C2C5 (some centres unmarked) | system: mKOR (Mus musculus)
Response: 8.60

Prompt: Param readout= pKi; system= mKOR (Mus musculus); entry= `O=C(N[C@@H]1CC[C@@]2(O)C3Cc4ccc(O)cc4[C@@]2(CCN3CC2CC2)C1)c1cccc(I)c1` ; returns value.
Response: 8.67

Prompt: Form: Entry = O=C(N[C@@H]1C=CC2[C@H]3Cc4ccc(O)c5c4[C@@]2(CCN3CC2CC2)[C@H]1O5)c1cccc(I)c1 (some centres unmarked) [MP1104, reference compound] | System = mKOR (Mus musculus) | pKi = ____
Response: 11.19

---

# Target desc: hDOR (Homo sapiens)
# Test name: Tango β-arrestin recruitment assay, hDOR
# Assay type: cell-based
# Design: expressed in transfected cells; host or cells: HTLA cells expressing TEV fused-beta-Arrestin2
# Assay context: read-out: Arrestin recruitment Emax % ± SEM
A collection of molecules and their measured Emax
Give just the number in %; leave the unit off.

Consider the following illustrative entries.
In [3]: df
Out[3]:
                                   molecule  readout_label  observed
0  O=C(N[C@@H]1CC[C@@]2(O)C3Cc4ccc(O)cc4[C@@]2(CCN3CC2CC2)C1)c1cccc(I)c1           Emax       203
1  N=C(N)NCc1cccc(C(=O)N[C@@H]2CCC3C4Cc5ccc(O)c6c5[C@@]3(CCN4CC3CC3)C2O6)c1 (some centres unmarked)           Emax        62
2  CO[C@@]12CC[C@@H](NC(=O)c3cccc(I)c3)C3Oc4c(O)ccc5c4[C@@]31CCN(CC1CC1)C2C5 (some centres unmarked)           Emax        89

Prompt: Entry O=C(N[C@@H]1CCC2C3Cc4ccc(O)c5c4C2(CCN3CC2CC2)C1O5)c1cccc(I)c1 (some centres unmarked) , system hDOR (Homo sapiens): what Emax was measured?
Response: 26

Prompt: Give the reported Emax for NCc1cccc(C(=O)NC2CCC3C4Cc5ccc(O)c6c5C3(CCN4CC3CC3)C2O6)c1 (centres unmarked) (system: hDOR (Homo sapiens)).
Response: 34

---

Measured Bias factor toward G protein, hKOR accompanies every entry in the list below.
# Target desc: hKOR (Homo sapiens, UniProt P41145)
# Construct: expressed in transfected cells; host or cells: HEK 293T (ATCC CRL-11268), transient
# Test name: cAMP inhibition assay (GloSensor, HEK 293T), hKOR
# Format: cell-based
# Assay context: cAMP inhibition vs Tango, against U50,488H as control
Output spec: single numeric token, no unit.

Known results for molecules:
>>> print(df.to_string())
                                   molecule  observed
0  O=C(N[C@@H]1CC[C@@]2(O)[C@H]3Cc4ccc(O)c5c4[C@@]2(CCN3CC2CC2)[C@H]1O5)c1cccc(I)c1 [IBNtxA, reference compound]       0.2
1  O=C(N[C@@H]1CC[C@H]2[C@H]3Cc4ccc(O)c5c4[C@@]2(CCN3CC2CC2)[C@H]1O5)c1cccc(CO)c1 [MP1210]       1.2
2  O=C(N[C@@H]1CC[C@@]2(O)C3Cc4ccc(O)cc4[C@@]2(CCN3CC2CC2)C1)c1cccc(I)c1 [MP1601]      0.15

Prompt: Lab note: need Bias factor toward G protein, hKOR for CO[C@@]12CC[C@@H](NC(=O)c3cccc(I)c3)C3Oc4c(O)ccc5c4[C@@]31CCN(CC1CC1)C2C5 (some centres unmarked) [MP1305] on hKOR (Homo sapiens, UniProt P41145), anyone have it?
Response: 4

---

# Target desc: mDOR (Mus musculus, UniProt P32300)
Readout label: log10 of Ki (log10 of the value in nM)
Reminder: these figures are log10 of reported Ki, in nM before transformation.

Example compounds with recorded log10 of Ki:
Compound	Target desc	log10 of Ki
O=C(N[C@@H]1CC[C@@]2(O)[C@H]3Cc4ccc(O)c5c4[C@@]2(CCN3CC2CC2)[C@H]1O5)c1cccc(I)c1 [IBNtxA, reference compound]	mDOR (Mus musculus, UniProt P32300)	-0.62
O=C(N[C@@H]1C=CC2[C@H]3Cc4ccc(O)c5c4[C@@]2(CCN3CC2CC2)[C@H]1O5)c1cccc(I)c1 (some centres unmarked) [MP1104, reference compound]	mDOR (Mus musculus, UniProt P32300)	-1.10
N=C(N)NCc1cccc(C(=O)N[C@@H]2CCC3C4Cc5ccc(O)c6c5[C@@]3(CCN4CC3CC3)C2O6)c1 (some centres unmarked)	mDOR (Mus musculus, UniProt P32300)	1.29
CO[C@@]12CC[C@@H](NC(=O)c3cccc(I)c3)C3Oc4c(O)ccc5c4[C@@]31CCN(CC1CC1)C2C5 (some centres unmarked)	mDOR (Mus musculus, UniProt P32300)	1.07

Attention now shifts to the item below.
Prompt: # query: log10 of Ki | item `O=C(N[C@@H]1CC[C@@]2(O)C3Cc4ccc(O)cc4[C@@]2(CCN3CC2CC2)C1)c1cccc(I)c1` | system: mDOR (Mus musculus, UniProt P32300)
Response: 0.73

---

# Target desc: hDOR (Homo sapiens)
# Test name: cAMP inhibition assay, hDOR
# Format: cell-based
# Set-up: expressed in transfected cells
# Assay context: hDOR
Readout label: pEC50
Schema: pEC50 number; meaning minus log10 of the concentration expressed in molar units.

Compound	Target desc	pEC50
O=C(N[C@@H]1CC[C@@]2(O)[C@H]3Cc4ccc(O)c5c4[C@@]2(CCN3CC2CC2)[C@H]1O5)c1cccc(I)c1 [IBNtxA, reference compound]	hDOR (Homo sapiens)	9.37
O=C(N[C@@H]1C=CC2[C@H]3Cc4ccc(O)c5c4[C@@]2(CCN3CC2CC2)[C@H]1O5)c1cccc(I)c1 (stereo partly drawn) [MP1104, reference compound]	hDOR (Homo sapiens)	9.40
NCc1cccc(C(=O)NC2CCC3C4Cc5ccc(O)c6c5C3(CCN4CC3CC3)C2O6)c1 (stereo not drawn)	hDOR (Homo sapiens)	7.94
CO[C@@]12CC[C@@H](NC(=O)c3cccc(I)c3)C3Oc4c(O)ccc5c4[C@@]31CCN(CC1CC1)C2C5 (stereo partly drawn)	hDOR (Homo sapiens)	7.13
O=C(N[C@@H]1CCC2C3Cc4ccc(O)c5c4C2(CCN3CC2CC2)C1O5)c1cccc(I)c1 (stereo partly drawn)	hDOR (Homo sapiens)	8.09

Please look at the following compound next.
Prompt: pEC50 lookup needed for `O=C(N[C@@H]1CC[C@@]2(O)C3Cc4ccc(O)cc4[C@@]2(CCN3CC2CC2)C1)c1cccc(I)c1` , thanks.
Response: 8.56

---

# Target desc: hDOR (Homo sapiens)
# Test name: Tango β-arrestin recruitment assay, hDOR
# Format: cell-based
# Design: expressed in transfected cells; host or cells: HTLA cells expressing TEV fused-beta-Arrestin2
# Assay context: hDOR, Tango
// returns criterion not met unless Arrestin recruitment pEC50 ± SEM is strictly below 7, in which case criterion met

Answered examples (3):
Molecule	Category label
N=C(N)NCc1cccc(C(=O)N[C@@H]2CCC3C4Cc5ccc(O)c6c5[C@@]3(CCN4CC3CC3)C2O6)c1 (some centres unmarked)	criterion met
O=C(N[C@@H]1CC[C@@]2(O)[C@H]3Cc4ccc(O)c5c4[C@@]2(CCN3CC2CC2)[C@H]1O5)c1cccc(I)c1 [IBNtxA, reference compound]	criterion not met
O=C(N[C@@H]1C=CC2[C@H]3Cc4ccc(O)c5c4[C@@]2(CCN3CC2CC2)[C@H]1O5)c1cccc(I)c1 (some centres unmarked) [MP1104, reference compound]	criterion not met

Kindly consider the entry below.
Prompt: Input CO[C@@]12CC[C@@H](NC(=O)c3cccc(I)c3)C3Oc4c(O)ccc5c4[C@@]31CCN(CC1CC1)C2C5 (some centres unmarked) ; condition: Arrestin recruitment pEC50 ± SEM strictly below 7. Does it hold?
Response: criterion met

---

# Target desc: hDOR (Homo sapiens)
# Test name: cAMP inhibition assay, hDOR
# Format: cell-based
# Design: expressed in transfected cells
# Assay context: read-out: cAMP inhibition Emax % ± SEM
Assign class by Emax: not lower than 70% means T; lower than 70% means F.

These recorded examples may help you get a feel for the data.
                                   compound  category_label
0  O=C(N[C@@H]1CC[C@@]2(O)C3Cc4ccc(O)cc4[C@@]2(CCN3CC2CC2)C1)c1cccc(I)c1               T
1  O=C(N[C@@H]1CCC2C3Cc4ccc(O)c5c4C2(CCN3CC2CC2)C1O5)c1cccc(I)c1 (some centres unmarked)               T
2  N=C(N)NCc1cccc(C(=O)N[C@@H]2CCC3C4Cc5ccc(O)c6c5[C@@]3(CCN4CC3CC3)C2O6)c1 (some centres unmarked)               F

Read the next record carefully.
Prompt: Is Emax for NCc1cccc(C(=O)NC2CCC3C4Cc5ccc(O)c6c5C3(CCN4CC3CC3)C2O6)c1 (centres unmarked) at or above 70%?
Response: F
